As shown below, each of these molecules has a reported pEC50 value.
- System: NS5A chimeric genotype 1b Con1 replicon with genotype 4a ED43 strain NS5A gene
- experimental_protocol: microbe, parasite or virus in culture
- Assay type: cell-based, HCV
- run_conditions: Hepatitis C virus, read-out: 4a
pEC50: −log10 of the molar value.

molecule: COC(=O)N[C@H](C(=O)N1C[C@@H](COC(F)F)C[C@H]1c1nc2ccc3cc4c(cc3c2[nH]1)OCc1cc(-c2cnc(C3CCCN3C(=O)OC(C)(C)C)[nH]2)ccc1-4)C(C)C (stereo partly drawn) [Example PQ]
pEC50: > 9.00

molecule: COC[C@H]1C[C@@H](c2nc3ccc4cc5c(cc4c3[nH]2)OCc2cc(-c3cnc([C@@H]4CC6C[C@H]6N4C(=O)[C@@H](NC(=O)OC)C(C)C)[nH]3)ccc2-5)N(C(=O)[C@H](NC(=O)OC)c2ccccc2)C1 (stereo partly drawn) [Example LT]
pEC50: > 9.00

molecule: COC(=O)N[C@H](C(=O)N1CCC[C@H]1c1nc2c([nH]1)-c1cc3c(cc1CC2)-c1ccc(-c2cnc([C@@H]4CCCN4C(=O)[C@H](NC(=O)C4CC4)c4ccccc4)[nH]2)cc1CO3)C(C)C [Compound 494]
pEC50: > 9.00

* * *

- Tested on: stable HCV 1a RLuc replicon cells (genotype 1a H77 replicon)
- experimental_protocol: microbe, parasite or virus in culture
- Assay type: cell-based
- run_conditions: Hepatitis C virus, read-out: 1a
pEC50: −log10 of the molar value.
Reported pEC50 values are given for each entry in this list.

molecule: CCC(C)[C@H](NC(=O)OC)C(=O)N1C[C@@H](C)CC1c1ncc(-c2ccc3c(c2)COc2cc4c(ccc5nc([C@@H]6CC(COC)CN6C(=O)[C@H](NC(=O)OC)c6ccccc6)[nH]c54)cc2-3)[nH]1 (stereo in doubt)
pEC50: > 9.00

molecule: COC(=O)N[C@H](C(=O)N1CCC[C@H]1c1ncc(-c2ccc3c(c2)COc2cc4c(ccc5nc([C@@H]6CCCN6C(=O)[C@H](NC(=O)C6CC6)c6ccccc6)[nH]c54)cc2-3)[nH]1)C(C)C
pEC50: > 9.00

* * *

- Test system: NS5A chimeric genotype 2a JFH-1 replicon with genotype 2b MD2b-1 strain NS5A gene (M31 present)
- experimental_protocol: microbe, parasite or virus in culture
- Format: cell-based, HCV
- run_conditions: Hepatitis C virus, read-out: 2b (s) (nM)

molecule: COC(=O)N[C@H](C(=O)N1CCC[C@H]1c1ncc(-c2ccc3c(c2)COc2cc4c(cc2-3)CCc2nc([C@@H]3CCCN3C(=O)[C@H](NC(=O)C3CC3)c3ccccc3)[nH]c2-4)[nH]1)C(C)C [Compound 503]
EC50: 0.037 nM
//
molecule: COC(=O)N[C@H](C(=O)N1[C@@H]2C[C@@H]2C[C@H]1c1nc2ccc3cc4c(cc3c2[nH]1)OCc1cc(-c2cnc([C@@H]3CCCN3C(=O)[C@H](NC(=O)OC)c3ccccc3)[nH]2)ccc1-4)C(C)C [Compound 536]
EC50: 0.037 nM
//
molecule: COC(=O)N[C@H](C(=O)N1CCCC1c1ncc(-c2ccc3c(c2)COc2cc4c(ccc5nc([C@@H]6C[C@@H]7CCC[C@@H]7N6C(=O)[C@@H](NC(=O)OC)C(C)C)[nH]c54)cc2-3)[nH]1)C(C)C (stereo partly drawn) [Example PO]
EC50: 0.47 nM
//
molecule: COC[C@H]1C[C@@H](c2ncc(-c3ccc4c(c3)COc3cc5c(cc3-4)CCc3nc([C@@H]4CC[C@H](C)N4C(=O)[C@@H](NC(=O)OC)C(C)C)[nH]c3-5)[nH]2)N(C(=O)[C@H](NC(=O)OC)c2ccccc2)C1 [Example OH]
EC50: 0.022 nM
//
molecule: COC[C@H]1C[C@@H](c2ncc(-c3ccc4c(c3)COc3cc5c(ccc6nc([C@@H]7CC[C@H](C)N7C(=O)[C@@H](NC(=O)OC)C(C)C)[nH]c65)cc3-4)[nH]2)N(C(=O)[C@@H](NC(=O)OC)[C@H](C)OC)C1 [Example QA]
EC50: 0.04 nM
//
molecule: COC(=O)N[C@H](C(=O)N1CCC[C@H]1c1ncc(-c2ccc3c(c2)COc2cc4c(ccc5nc([C@@H]6CCCN6C(=O)[C@H](NC(=O)C6CC6)c6ccccc6)[nH]c54)cc2-3)[nH]1)C(C)C [Compound 516]
EC50: 0.013 nM
//
molecule: CCO[C@H]1C[C@@H](c2nc3ccc4cc5c(cc4c3[nH]2)OCc2cc(-c3cnc([C@@H]4CCCN4C(=O)[C@H](NC(=O)OC)c4ccccc4)[nH]3)ccc2-5)N(C(=O)[C@@H](NC(=O)OC)C(C)C)C1 [Example OR]
EC50: 0.109 nM
//
molecule: CCO[C@H]1C[C@@H](c2nc3ccc4cc5c(cc4c3[nH]2)OCc2cc(-c3cnc([C@@H]4CCCN4C(=O)[C@@H](NC(=O)OC)C(C)C)[nH]3)ccc2-5)N(C(=O)[C@@H](NC(=O)OC)C(C)C)C1 [Example OQ]
EC50: 0.982 nM
//
molecule: COC[C@H]1C[C@@H](c2ncc(-c3ccc4c(c3)COc3cc5c(ccc6nc([C@@H]7C[C@H](COC)CN7C(=O)[C@@H](NC(=O)OC)C(C)C)[nH]c65)cc3-4)[nH]2)N(C(=O)[C@@H](NC(=O)OC)C(C)C)C1 [Example OI]
EC50: 0.629 nM

* * *

- System: stable HCV 1a RLuc replicon cells (genotype 1a H77 replicon)
- experimental_protocol: microbe, parasite or virus in culture
- Assay type: cell-based
- run_conditions: Hepatitis C virus, read-out: 1a (nM)

compound: COC(=O)N[C@H](C(=O)N1[C@@H](C)CC[C@H]1c1nc2ccc3cc4c(cc3c2[nH]1)OCc1cc(-c2cnc([C@@H]3C[C@H](C)CN3C(=O)[C@@H](NC(=O)OC)[C@@H](C)OC)[nH]2)ccc1-4)C(C)C [Example QH]
EC50 [nM]: 0.007

compound: COC(=O)N[C@H](C(=O)N1C[C@@H](COC(F)F)C[C@H]1c1ncc(-c2ccc3c(c2)COc2cc4c(ccc5nc([C@@H]6CC[C@H](C)N6C(=O)[C@@H](NC(=O)OC)C(C)C)[nH]c54)cc2-3)[nH]1)C(C)C [Example PT]
EC50 [nM]: 0.007

compound: COC(=O)N[C@H](C(=O)N1[C@@H]2C[C@@H]2C[C@H]1c1ncc(-c2ccc3c(c2)COc2cc4c(ccc5nc([C@@H]6C[C@H](COC(F)F)CN6C(=O)[C@H](NC(=O)OC)c6ccccc6)[nH]c54)cc2-3)[nH]1)C(C)C [Example MW]
EC50 [nM]: 0.012

compound: COC(=O)N[C@H](C(=O)N1C[C@@H](C)C[C@H]1c1nc2ccc3cc4c(cc3c2[nH]1)OCc1cc(-c2cnc([C@@H]3C[C@H](C)CN3C(=O)[C@H](NC(=O)OC)c3ccccc3)[nH]2)ccc1-4)C(C)C [Example PG]
EC50 [nM]: 0.033

* * *

- System: 1a Pi-Rluc replicon with Q30R in genotype 1a NS5A
- experimental_protocol: microbe, parasite or virus in culture
- Format: cell-based, HCV
- run_conditions: Hepatitis C virus, read-out: 1a Q30R (nM)
The reader will find reported EC50 values listed item by item below.

compound: COC[C@H]1C[C@@H](c2nc3ccc4cc5c(cc4c3[nH]2)OCc2cc(-c3cnc([C@@H]4CCCN4C(=O)[C@@H](NC(=O)OC)[C@@H](C)OC)[nH]3)ccc2-5)N(C(=O)[C@H](NC(=O)OC)c2ccccc2)C1
unit_annotation: nM
EC50: 0.041

compound: COC[C@H]1C[C@@H](c2nc3ccc4cc5c(cc4c3[nH]2)OCc2cc(-c3cnc([C@@H]4CC6C[C@H]6N4C(=O)[C@@H](NC(=O)OC)C(C)C)[nH]3)ccc2-5)N(C(=O)[C@H](NC(=O)OC)c2ccccc2)C1 (stereo partly shown)
unit_annotation: nM
EC50: 0.01

compound: COC[C@H]1C[C@@H](c2nc3ccc4cc5c(cc4c3[nH]2)OCc2cc(-c3cnc([C@@H]4C[C@H](C)CN4C(=O)[C@@H](NC(=O)OC)C(C)C)[nH]3)ccc2-5)N(C(=O)[C@@H](NC(=O)OC)C(C)C)C1
unit_annotation: nM
EC50: 0.052

compound: COC(=O)N[C@H](C(=O)N1[C@@H](C)CC[C@H]1c1ncc(-c2ccc3c(c2)COc2cc4c(ccc5nc([C@@H]6CCCN6C(=O)[C@@H](NC(=O)OC)[C@@H](C)OC)[nH]c54)cc2-3)[nH]1)C(C)C
unit_annotation: nM
EC50: 0.146

compound: COC(=O)N[C@H](C(=O)N1[C@H](c2nc3ccc4cc5c(cc4c3[nH]2)OCc2cc(-c3cnc(C4CCCN4C(=O)[C@@H](NC(=O)OC)C4CCOCC4)[nH]3)ccc2-5)C[C@@H]2CCC[C@@H]21)C(C)C (stereo partly shown)
unit_annotation: nM
EC50: 0.043

compound: COC[C@H]1C[C@@H](c2ncc(-c3ccc4c(c3)COc3cc5c(ccc6nc([C@@H]7C[C@H](COC)CN7C(=O)[C@@H](NC(=O)OC)C(C)C)[nH]c65)cc3-4)[nH]2)N(C(=O)[C@@H](NC(=O)OC)C(C)C)C1
unit_annotation: nM
EC50: 0.086

compound: COC(=O)N[C@H](C(=O)N1CCC[C@H]1c1nc2ccc3cc4c(cc3c2[nH]1)OCc1cc(-c2cnc([C@@H]3CCCN3C(=O)[C@H](NC(=O)C3CC3)c3ccccc3)[nH]2)ccc1-4)C(C)C
unit_annotation: nM
EC50: 0.04

compound: COC[C@@H]1C[C@@H](c2nc3ccc4cc5c(cc4c3[nH]2)OCc2cc(-c3cnc([C@@H]4CCCN4C(=O)[C@@H](NC(=O)OC)C(C)C)[nH]3)ccc2-5)N(C(=O)[C@H](NC(=O)OC)c2ccccc2)C1
unit_annotation: nM
EC50: 0.023

compound: COC(=O)N[C@H](C(=O)N1CCC[C@H]1c1nc2c([nH]1)CCc1cc3c(cc1-2)OCc1cc(-c2cnc([C@@H]4CCCN4C(=O)[C@H](NC(=O)OC)c4ccccc4)[nH]2)ccc1-3)C(C)C
unit_annotation: nM
EC50: 0.768

compound: COC[C@H]1C[C@@H](c2ncc(-c3ccc4c(c3)COc3cc5c(cc3-4)CCc3nc([C@@H]4CCCN4C(=O)[C@@H](NC(=O)OC)C(C)C)[nH]c3-5)[nH]2)N(C(=O)[C@H](NC(=O)OC)c2ccccc2)C1
unit_annotation: nM
EC50: 0.039
